The entries below come with measured inhibition at 31.25 µg/mL values attached.
System: S. aureus (DSM 1104) biofilm formation
Protocol text: Biofilm inhibition assay (Crystal Violet staining)
Type: cell-based, Staphylococcus aureus
Assay setup: Staphylococcus aureus, DSM1104, S. aureus (DSM 1104), 31.25 µg/ml; read-out: Biofilm inhibition (% ± SD)
Field format: number, assumed %, no unit text.

Some molecules with known inhibition at 31.25 µg/mL results, for comparison:
Molecule	Study target	Readout value
CCC(C)/C=C(C)/C=C/C(=O)c1c(O)c(-c2ccc(O)cc2)cn(O)c1=O (stereo not shown)	S. aureus (DSM 1104) biofilm formation	73
O=C(O)c1c(O)c(-c2ccc(O)cc2)cn(O)c1=O	S. aureus (DSM 1104) biofilm formation	46
CCC(C)/C=C(C)/C=C/C(=O)C1=C(O)[C@H]([C@H](O)c2ccc(O)cc2)NC1=O (stereo partly shown)	S. aureus (DSM 1104) biofilm formation	80

Now for a further molecule.
Looking up CCC(/C=C(C)/C=C/C(=O)c1c(O)c(-c2ccc(O)cc2)cn(O)c1=O)CO (stereo not shown) [Compound 5, 15-Hydroxytenellin] , I found its inhibition at 31.25 µg/mL recorded as 78

====

Test system: breast cancer (MCF-7) cell line
Protocol text: Cytotoxicity assay, MCF-7
Assay type: cell-based
Assay setup: Homo sapiens, MCF7, 120 h; MCF-7 (breast), 5 days of incubation; read-out: IC50
Experimental endpoint: IC50 (µM)
Field format: number, assumed µM, no unit text.

Some molecules with known IC50 results, for comparison:
Molecule	Experimental endpoint	Readout value
CCC(/C=C(C)/C=C/C(=O)c1c(O)c(-c2ccc(O)cc2)cn(O)c1=O)CO (stereo not drawn) [Compound 5, 15-Hydroxytenellin]	IC50	8.1
CCC(/C=C(C)/C=C/C(=O)c1c(O)c(-c2ccc(O)cc2)c[nH]c1=O)CO (stereo not drawn)	IC50	7.3

Now for a further molecule.
Looking up CCC(C)/C=C(C)/C=C/C(=O)c1c(O)c(-c2ccc(O)cc2)cn(O)c1=O (stereo not drawn) , I found its IC50 recorded as 2

====

The entries below come with measured inhibition at 125 µg/mL values attached.
System: S. aureus (DSM 1104) biofilm formation
Protocol text: Biofilm inhibition assay (Crystal Violet staining)
Type: cell-based, Staphylococcus aureus
Assay setup: Staphylococcus aureus, DSM1104, S. aureus (DSM 1104), 125 µg/ml; read-out: Biofilm inhibition (% ± SD)
Field format: number, assumed %, no unit text.

Some compounds with known inhibition at 125 µg/mL results, for comparison:
Compound	inhibition at 125 µg/mL [%]
O=C(O)c1c(O)c(-c2ccc(O)cc2)cn(O)c1=O	74
CCC(C)/C=C(C)/C=C/C(=O)c1c(O)c(-c2ccc(O)cc2)cn(O)c1=O (stereo not shown)	78
CCC(/C=C(C)/C=C/C(=O)c1c(O)c(-c2ccc(O)cc2)cn(O)c1=O)CO (stereo not shown) [Compound 5, 15-Hydroxytenellin]	86

Now for a further compound.
The observed inhibition at 125 µg/mL for CCC(C)/C=C(C)/C=C/C(=O)C1=C(O)[C@H]([C@H](O)c2ccc(O)cc2)NC1=O (stereo partly shown) when tested with S. aureus (DSM 1104) biofilm formation stands at 84

====

The entries below come with measured MIC values attached.
System: Pseudomonas aeruginosa [PA14]
Protocol text: Serial dilution assay (MIC)
Type: cell-based
Assay setup: read-out: MIC
Protocol: All isolated compounds were assessed for their antimicrobial activity using a serial dilution assay over a concentration range from 67 to 0.5 µg/mL following the previously described protocols. […]

Some molecules with known MIC results, for comparison:
Molecule	Readout value
CCC(/C=C(C)/C=C/C(=O)c1c(O)c(-c2ccc(O)cc2)cn(O)c1=O)CO (centres unmarked) [Compound 5, 15-Hydroxytenellin]	> 67 µg/mL
CNC(C)C1CCC(N)C(OC2C(N)CC(N)C(OC3OCC(C)(O)C(NC)C3O)C2O)O1 (centres unmarked) [Gentamycin, reference compound]	0.21 µg/mL
CCC(C)/C=C(C)/C=C/C(=O)c1c(O)c(-c2ccc(O)cc2)cn(O)c1=O (centres unmarked) [Compound 4, Tenellin]	> 67 µg/mL
CCC(C)/C=C(C)/C=C/C(=O)C1=C(O)[C@H]([C@H](O)c2ccc(O)cc2)NC1=O (some centres unmarked) [Compound 2, Prototenellin D]	> 67 µg/mL

Now for a further molecule.
Looking up O=C(O)c1c(O)c(-c2ccc(O)cc2)cn(O)c1=O [Compound 1, Pretenellin C] , I found its MIC recorded as > 67 µg/mL

====

The entries below come with measured MIC values attached.
System: Bacillus subtilis [DSM 10]
Protocol text: Serial dilution assay (MIC)
Assay type: cell-based
Assay setup: DSM10, read-out: MIC

Some molecules with known MIC results, for comparison:
Molecule	Study target	MIC
CCC(C)/C=C(C)/C=C/C(=O)c1c(O)c(-c2ccc(O)cc2)cn(O)c1=O (centres unmarked) [Compound 4, Tenellin]	Bacillus subtilis [DSM 10]	8.3 µg/mL
CCC(C)/C=C(C)/C=C/C(=O)C1=C(O)[C@H]([C@H](O)c2ccc(O)cc2)NC1=O (some centres unmarked) [Compound 2, Prototenellin D]	Bacillus subtilis [DSM 10]	> 67 µg/mL
O=C(O)c1c(O)c(-c2ccc(O)cc2)cn(O)c1=O [Compound 1, Pretenellin C]	Bacillus subtilis [DSM 10]	> 67 µg/mL
CCC(/C=C(C)/C=C/C(=O)c1c(O)c(-c2ccc(O)cc2)cn(O)c1=O)CO (centres unmarked) [Compound 5, 15-Hydroxytenellin]	Bacillus subtilis [DSM 10]	66.6 µg/mL

Looking up CN(C)[C@@H]1C(O)=C(C(N)=O)C(=O)[C@@]2(O)C(O)=C3C(=O)c4c(O)cccc4[C@@](C)(O)[C@H]3[C@H](O)[C@@H]12 [Oxytetracycline, reference compound] , I found its MIC recorded as 16.6 µg/mL

====

The entries below come with measured IC50 values attached.
Tested on: mouse fibroblasts (L-929)
Protocol text: Cytotoxicity assay, L929
Type: cell-based
Assay setup: Mus musculus, L929, 120 h, L929 (fibroblast), 5 days of incubation
Field format: number, assumed µM, no unit text.

Some compounds with known IC50 results, for comparison:
Compound	IC50 (µM)
CCC(C)/C=C(C)/C=C/C(=O)C1=C(O)[C@H]([C@H](O)c2ccc(O)cc2)NC1=O (stereo partly drawn)	70.1
CCC(C)/C=C(C)/C=C/C(=O)c1c(O)c(-c2ccc(O)cc2)cn(O)c1=O (stereo not drawn)	0.79

Now for a further compound.
Looking up CCC(C)/C=C(C)/C=C/C(=O)c1c(O)c(-c2ccc(O)cc2)c[nH]c1=O (stereo not drawn) , I found its IC50 recorded as 48.2

====

Tested on: Staphylococcus aureus [DSM 346]
Protocol text: Serial dilution assay (MIC)
Type: cell-based
Assay setup: DSM346, read-out: MIC
Experimental endpoint: MIC (µg/mL)
Field format: number, assumed µg/mL, no unit text.

Some compounds with known MIC results, for comparison:
Compound	Study target	Experimental endpoint	Readout value
CCC(/C=C(C)/C=C/C(=O)c1c(O)c(-c2ccc(O)cc2)cn(O)c1=O)CO (centres unmarked) [Compound 5, 15-Hydroxytenellin]	Staphylococcus aureus [DSM 346]	MIC	66.6
CCC(C)/C=C(C)/C=C/C(=O)c1c(O)c(-c2ccc(O)cc2)cn(O)c1=O (centres unmarked)	Staphylococcus aureus [DSM 346]	MIC	16.6

Now for a further compound.
Looking up CNC(C)C1CCC(N)C(OC2C(N)CC(N)C(OC3OCC(C)(O)C(NC)C3O)C2O)O1 (centres unmarked) [Gentamycin, reference compound] , I found its MIC recorded as 0.21

====

Tested on: mouse fibroblasts (L-929)
Protocol text: Cytotoxicity assay, L929
Type: cell-based
Assay setup: Mus musculus, L929, 120 h, L929 (fibroblast), 5 days of incubation
Experimental endpoint: IC50

Some molecules with known IC50 results, for comparison:
Molecule	Experimental endpoint	Readout value
O=C(O)c1c(O)c(-c2ccc(O)cc2)cn(O)c1=O [Compound 1, Pretenellin C]	IC50	> 37 µg/mL
CCC(/C=C(C)/C=C/C(=O)c1c(O)c(-c2ccc(O)cc2)cn(O)c1=O)CO (stereo not drawn) [Compound 5, 15-Hydroxytenellin]	IC50	4.9 to 6.8 µM

Now for a further molecule.
Looking up CCC(/C=C(C)/C=C/C(=O)c1c(O)c(-c2ccc(O)cc2)c[nH]c1=O)CO (stereo not drawn) [Compound 6, Pyridovericin] , I found its IC50 recorded as 4.9 to 6.8 µM
